meta.source: paper PMC4520450

Sequence of the target: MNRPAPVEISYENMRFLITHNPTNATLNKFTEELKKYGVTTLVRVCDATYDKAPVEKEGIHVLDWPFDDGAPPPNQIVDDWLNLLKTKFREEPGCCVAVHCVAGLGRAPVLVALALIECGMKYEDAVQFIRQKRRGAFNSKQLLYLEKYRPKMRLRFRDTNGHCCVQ
Would you kindly list pIC50 for each of these compounds?
Note: pIC50 values are expressed as the negative base-10 logarithm of concentration in M.

# pIC50 (compound: `Oc1cc(O)c2c(c1)O[C@H](c1ccc(O)c(O)c1)[C@@H](O)[C@@H]2c1c(O)cc(O)c2c1O[C@H](c1ccc(O)c(O)c1)[C@@H](O)C2` ) is 3.99

# pIC50 (compound: `Oc1cc(O)c2c(c1)O[C@H](c1ccc(O)c(O)c1)[C@@H](O)[C@@H]2c1c(O)cc(O)c2c1O[C@H](c1ccc(O)c(O)c1)[C@@H](O)[C@@H]2c1c(O)cc(O)c2c1O[C@H](c1ccc(O)c(O)c1)[C@@H](O)C2` ) is 4.82

# pIC50 (compound: `Oc1cc(O)c2c(c1)O[C@H](c1ccc(O)c(O)c1)[C@@H](O)[C@@H]2c1c(O)cc(O)c2c1O[C@H](c1ccc(O)c(O)c1)[C@@H](O)[C@@H]2c1c(O)cc(O)c2c1O[C@H](c1ccc(O)c(O)c1)[C@@H](O)[C@@H]2c1c(O)cc(O)c2c1O[C@H](c1ccc(O)c(O)c1)[C@@H](O)[C@@H]2c1c(O)cc(O)c2c1O[C@H](c1ccc(O)c(O)c1)[C@@H](O)[C@@H]2c1c(O)cc(O)c2c1O[C@H](c1ccc(O)c(O)c1)[C@@H](O)C2` ) is 5.00

----------
Would you kindly list pIC50 for each of these molecules?
Target protein (sequence): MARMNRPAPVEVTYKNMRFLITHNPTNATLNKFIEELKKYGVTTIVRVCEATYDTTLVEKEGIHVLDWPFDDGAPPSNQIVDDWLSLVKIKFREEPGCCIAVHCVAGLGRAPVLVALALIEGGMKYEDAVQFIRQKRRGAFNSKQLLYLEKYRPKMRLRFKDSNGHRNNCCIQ
Note: pIC50 values are expressed as the negative base-10 logarithm of concentration in M.

# pIC50 (molecule: Oc1cc(O)c2c(c1)O[C@H](c1ccc(O)c(O)c1)[C@@H](O)[C@@H]2c1c(O)cc(O)c2c1O[C@H](c1ccc(O)c(O)c1)[C@@H](O)[C@@H]2c1c(O)cc(O)c2c1O[C@H](c1ccc(O)c(O)c1)[C@@H](O)C2 [Procyanidin C2 (9), Procyanidin C2] ) is 5.74

# pIC50 (molecule: Oc1cc(O)c2c(c1)O[C@H](c1ccc(O)c(O)c1)[C@@H](O)[C@@H]2c1c(O)cc(O)c2c1O[C@H](c1ccc(O)c(O)c1)[C@@H](O)C2 [Procyanidin B3 (8), Procyanidin B3] ) is 5.48

# pIC50 (molecule: Oc1cc(O)c2c(c1)O[C@H](c1ccc(O)c(O)c1)[C@@H](O)[C@@H]2c1c(O)cc(O)c2c1O[C@H](c1ccc(O)c(O)c1)[C@@H](O)[C@@H]2c1c(O)cc(O)c2c1O[C@H](c1ccc(O)c(O)c1)[C@@H](O)[C@@H]2c1c(O)cc(O)c2c1O[C@H](c1ccc(O)c(O)c1)[C@@H](O)C2 [Tetramer (10)] ) is 5.66

# pIC50 (molecule: Oc1cc(O)c2c(c1)O[C@H](c1ccc(O)c(O)c1)[C@@H](O)C2 [(+)-Catechin (6), (+)-Catechin] ) is 3.80

----------
Would you kindly list pIC50 for each of these compounds?
# assayed-target: PP2A (Homo sapiens, UniProt P67775)
# Construct: purified from human red blood cells
# Sequence (P67775 whole entry): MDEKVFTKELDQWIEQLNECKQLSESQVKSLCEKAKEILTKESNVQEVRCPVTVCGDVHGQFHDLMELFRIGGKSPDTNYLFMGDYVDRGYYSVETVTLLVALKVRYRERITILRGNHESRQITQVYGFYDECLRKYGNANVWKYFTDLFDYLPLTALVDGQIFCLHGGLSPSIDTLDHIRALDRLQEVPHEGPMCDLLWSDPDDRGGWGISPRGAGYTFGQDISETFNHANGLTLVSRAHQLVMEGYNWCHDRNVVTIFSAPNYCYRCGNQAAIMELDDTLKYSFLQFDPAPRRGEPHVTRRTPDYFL
# Sequence (P30153 2-589 partner limits assumed): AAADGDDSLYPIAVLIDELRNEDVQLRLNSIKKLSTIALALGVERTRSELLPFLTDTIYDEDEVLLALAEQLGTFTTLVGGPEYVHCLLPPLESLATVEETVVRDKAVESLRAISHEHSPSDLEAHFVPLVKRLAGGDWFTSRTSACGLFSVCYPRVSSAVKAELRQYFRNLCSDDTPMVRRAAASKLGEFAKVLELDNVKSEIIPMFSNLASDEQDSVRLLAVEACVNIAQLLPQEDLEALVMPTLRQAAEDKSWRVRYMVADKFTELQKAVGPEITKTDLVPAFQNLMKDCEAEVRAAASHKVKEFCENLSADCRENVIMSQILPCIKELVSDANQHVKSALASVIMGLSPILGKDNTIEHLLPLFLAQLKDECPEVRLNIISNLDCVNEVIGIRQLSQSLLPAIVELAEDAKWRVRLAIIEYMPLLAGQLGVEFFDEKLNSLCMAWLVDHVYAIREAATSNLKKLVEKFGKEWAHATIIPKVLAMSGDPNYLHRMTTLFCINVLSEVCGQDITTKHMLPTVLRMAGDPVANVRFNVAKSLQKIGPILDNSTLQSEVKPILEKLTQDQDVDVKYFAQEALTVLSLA
# assay-info: DiFMUP assay for PP2A
# condition-notes: 0.05 U PP2A, 30 min preincubation, 25°C, no BSA, mean ± SEM (n = 3–5), read-out: IC50 (Ki) PP2A
Note: pIC50 values are expressed as the negative base-10 logarithm of concentration in M.

Value (pIC50, PP2A (Homo sapiens, UniProt P67775)) for record `Oc1cc(O)c2c(c1)O[C@H](c1ccc(O)c(O)c1)[C@@H](O)[C@@H]2c1c(O)cc(O)c2c1O[C@H](c1ccc(O)c(O)c1)[C@@H](O)[C@@H]2c1c(O)cc(O)c2c1O[C@H](c1ccc(O)c(O)c1)[C@@H](O)[C@@H]2c1c(O)cc(O)c2c1O[C@H](c1ccc(O)c(O)c1)[C@@H](O)[C@@H]2c1c(O)cc(O)c2c1O[C@H](c1ccc(O)c(O)c1)[C@@H](O)[C@@H]2c1c(O)cc(O)c2c1O[C@H](c1ccc(O)c(O)c1)[C@@H](O)C2` = 4.49

Value (pIC50, PP2A (Homo sapiens, UniProt P67775)) for record `Oc1cc(O)c2c(c1)O[C@H](c1ccc(O)c(O)c1)[C@@H](O)[C@@H]2c1c(O)cc(O)c2c1O[C@H](c1ccc(O)c(O)c1)[C@@H](O)[C@@H]2c1c(O)cc(O)c2c1O[C@H](c1ccc(O)c(O)c1)[C@@H](O)C2` = 3.67

Value (pIC50, PP2A (Homo sapiens, UniProt P67775)) for record `Oc1cc(O)c2c(c1)O[C@H](c1ccc(O)c(O)c1)[C@@H](O)[C@@H]2c1c(O)cc(O)c2c1O[C@H](c1ccc(O)c(O)c1)[C@@H](O)[C@@H]2c1c(O)cc(O)c2c1O[C@H](c1ccc(O)c(O)c1)[C@@H](O)[C@@H]2c1c(O)cc(O)c2c1O[C@H](c1ccc(O)c(O)c1)[C@@H](O)C2` = 4.11

----------
# assayed-target: PP1 (Oryctolagus cuniculus, UniProt P62139)
# Sequence (P62139 whole entry): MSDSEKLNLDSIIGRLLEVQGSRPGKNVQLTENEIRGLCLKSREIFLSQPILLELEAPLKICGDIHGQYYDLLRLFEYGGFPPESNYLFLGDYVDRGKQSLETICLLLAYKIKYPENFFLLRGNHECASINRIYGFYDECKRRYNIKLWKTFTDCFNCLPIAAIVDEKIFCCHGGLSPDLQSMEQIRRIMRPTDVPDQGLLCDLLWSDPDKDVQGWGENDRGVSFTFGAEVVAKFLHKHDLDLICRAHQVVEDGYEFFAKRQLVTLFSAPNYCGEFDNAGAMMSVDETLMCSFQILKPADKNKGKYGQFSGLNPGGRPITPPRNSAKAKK
Would you kindly list pIC50 for each of these compounds?
Note: pIC50 values are expressed as the negative base-10 logarithm of concentration in M.

# pIC50 (compound: Oc1cc(O)c2c(c1)O[C@H](c1ccc(O)c(O)c1)[C@@H](O)[C@@H]2c1c(O)cc(O)c2c1O[C@H](c1ccc(O)c(O)c1)[C@@H](O)[C@@H]2c1c(O)cc(O)c2c1O[C@H](c1ccc(O)c(O)c1)[C@@H](O)[C@@H]2c1c(O)cc(O)c2c1O[C@H](c1ccc(O)c(O)c1)[C@@H](O)[C@@H]2c1c(O)cc(O)c2c1O[C@H](c1ccc(O)c(O)c1)[C@@H](O)[C@@H]2c1c(O)cc(O)c2c1O[C@H](c1ccc(O)c(O)c1)[C@@H](O)C2 [Hexamer (11)] ) is 5.15

# pIC50 (compound: Oc1cc(O)c2c(c1)O[C@H](c1ccc(O)c(O)c1)[C@@H](O)[C@@H]2c1c(O)cc(O)c2c1O[C@H](c1ccc(O)c(O)c1)[C@@H](O)[C@@H]2c1c(O)cc(O)c2c1O[C@H](c1ccc(O)c(O)c1)[C@@H](O)C2 [Procyanidin C2 (9), Procyanidin C2] ) is 4.06

# pIC50 (compound: Oc1cc(O)c2c(c1)O[C@H](c1ccc(O)c(O)c1)[C@@H](O)[C@@H]2c1c(O)cc(O)c2c1O[C@H](c1ccc(O)c(O)c1)[C@@H](O)C2 [Procyanidin B3 (8), Procyanidin B3] ) is 3.42

----------
Would you kindly list pIC50 for each of these compounds?
# assayed-target: PRL-3 (Homo sapiens)
# Construct: His-TEV (cleaved yes); made in house
# Sequence (O75365 whole entry): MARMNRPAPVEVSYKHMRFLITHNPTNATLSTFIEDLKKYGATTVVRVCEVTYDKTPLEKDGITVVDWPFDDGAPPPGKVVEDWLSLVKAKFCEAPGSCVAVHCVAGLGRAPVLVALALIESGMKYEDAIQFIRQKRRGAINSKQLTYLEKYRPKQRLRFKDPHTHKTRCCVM
# assay-info: DiFMUP phosphatase activity assay for PRLs
# Type: biochemical
# condition-notes: 50 nM PRL-3, 30 min preincubation, 25°C, 21 μM DiFMUP; mean ± SEM (n = 3–5); read-out: IC50 (Ki) PRL-3
Note: pIC50 values are expressed as the negative base-10 logarithm of concentration in M.

# pIC50 (compound: `Oc1cc(O)c2c(c1)O[C@H](c1ccc(O)c(O)c1)[C@@H](O)[C@@H]2c1c(O)cc(O)c2c1O[C@H](c1ccc(O)c(O)c1)[C@@H](O)[C@@H]2c1c(O)cc(O)c2c1O[C@H](c1ccc(O)c(O)c1)[C@@H](O)[C@@H]2c1c(O)cc(O)c2c1O[C@H](c1ccc(O)c(O)c1)[C@@H](O)[C@@H]2c1c(O)cc(O)c2c1O[C@H](c1ccc(O)c(O)c1)[C@@H](O)[C@@H]2c1c(O)cc(O)c2c1O[C@H](c1ccc(O)c(O)c1)[C@@H](O)C2` ) is 4.90

# pIC50 (compound: Oc1cc(O)c2c(c1)O[C@H](c1cc(O)c(O)c(O)c1)[C@H](O)C2 [EGC (3), (–)-epigallocatechin] ) is 3.55

# pIC50 (compound: Oc1cc(O)c2c(c1)O[C@H](c1ccc(O)c(O)c1)[C@H](O)C2 [EC (1), (–)-epicatechin] ) is 3.29

# pIC50 (compound: `O=C(O[C@@H]1Cc2c(O)cc(O)cc2O[C@@H]1c1cc(O)c(O)c(O)c1)c1cc(O)c(O)c(O)c1` ) is 3.92

# pIC50 (compound: Oc1cc(O)c2c(c1)O[C@H](c1ccc(O)c(O)c1)[C@@H](O)C2 [(+)-Catechin (6), (+)-Catechin] ) is 3.34

# pIC50 (compound: `Oc1cc(O)c2c(c1)O[C@H](c1ccc(O)c(O)c1)[C@@H](O)[C@@H]2c1c(O)cc(O)c2c1O[C@H](c1ccc(O)c(O)c1)[C@@H](O)[C@@H]2c1c(O)cc(O)c2c1O[C@H](c1ccc(O)c(O)c1)[C@@H](O)C2` ) is 4.73

# pIC50 (compound: `O=C(O[C@H]1Cc2c(O)cc(O)cc2O[C@@H]1c1cc(O)c(O)c(O)c1)c1cc(O)c(O)c(O)c1` ) is 3.95

# pIC50 (compound: `Oc1cc(O)c2c(c1)O[C@H](c1ccc(O)c(O)c1)[C@@H](O)[C@@H]2c1c(O)cc(O)c2c1O[C@H](c1ccc(O)c(O)c1)[C@@H](O)C2` ) is 3.90

# pIC50 (compound: O=C(O[C@@H]1Cc2c(O)cc(O)cc2O[C@@H]1c1ccc(O)c(O)c1)c1cc(O)c(O)c(O)c1 [ECG (2), (–)-epicatechin-3-O-gallate] ) is 3.74

# pIC50 (compound: `Oc1cc(O)c2c(c1)O[C@H](c1ccc(O)c(O)c1)[C@@H](O)[C@@H]2c1c(O)cc(O)c2c1O[C@H](c1ccc(O)c(O)c1)[C@@H](O)[C@@H]2c1c(O)cc(O)c2c1O[C@H](c1ccc(O)c(O)c1)[C@@H](O)[C@@H]2c1c(O)cc(O)c2c1O[C@H](c1ccc(O)c(O)c1)[C@@H](O)C2` ) is 4.79
